system tested: ch-Antibody 51
method notes: ligand cross-reactivity testing: inhibition of [3H]-METH binding to antibody
measurement context: inferred from more than 50% inhibition at 1 μM
Protocol: Ch-Antibody 51 was designed to maintain the variable framework regions of the heavy and light chains of the mouse antibody including all three CDRs of both the heavy and the light chains, but includes a human IgG2 Fc region. […] The amount of mAb-bound [^3H]-METH is quantified by liquid scintillation counting. […] Each pool was analyzed in triplicate, twice at each concentration. […]
measured quantity: Ki

1. CNC(C)Cc1ccc2c(c1)OCO2 (single isomer, unassigned; (-)) [(−)-MDMA] | < 1000 nM

###

System: ch-Antibody 51
method notes: ligand cross-reactivity testing: inhibition of [3H]-METH binding to antibody
measurement context: individual ligands at 1 μM, triplicate in 2 assays, average
Decide using Percent inhibition of [3H]-METH binding: a value greater than or equal to 40% is Fulfilled, a smaller one is Not fulfilled.

1) CN[C@@H](C)[C@H](O)c1ccccc1 (racemic) [(±)-Ephethine] | Not fulfilled
2) CNC(C)Cc1ccc2c(c1)OCO2 (single isomer, unassigned; (-)) [(−)-MDMA] | Fulfilled
3) CNC[C@H](O)c1cccc(O)c1 [(−)-Phenylephrine] | Not fulfilled
4) NCCc1ccccc1 | Not fulfilled
